Please go through the items and note down their Change in Paw Volume.
tested on: rat paw edema model; experiment: Rat paw edema model (carrageenan), anti-inflammatory activity; type: in vivo, Sprague-Dawley (SD) rats; conditions: Table 5; 1 mg/kg IV; 4 h post-carrageenan
Numbered stars: 1 amine (or outer) side, 2 acyl side, 3 side chain; on linkers, the order of the positions; unused ones are H or OH. Bridge positions count the residues as written; N and C are the ends. Square brackets hold non-standard residues; d marks the D form. Peptide text beside a SMILES is read from it. Phe(4-(4-pyridyl)) = N[C@@H](Cc1ccc(-c2ccncc2)cc1)C(=O)O; Phe(4-NH2) = Nc1ccc(C[C@H](N)C(=O)O)cc1; d(hPhe) = N[C@H](CCc1ccccc1)C(=O)O; Suc = O=C(CCC(=O)[*:2])[*:1]
One number for each entry, in mL.

Use the examples below as a reference point.
O=C1COc2ccc(cc2)C[C@@H](C(=O)O)NC(=O)[C@H](Cc2ccccc2)NC(=O)[C@H](Cc2ccc(-c3ccc(NC(=O)OCc4ccccc4)cc3)cc2)NC(=O)[C@H](Cc2cccs2)N1 = 1.22
O=C(O)[C@H](Cc1ccccc1)NC(=O)[C@@H]1Cc2ccc(cc2)NC(=O)[C@H](O)[C@@H](O)C(=O)N[C@H](Cc2cccs2)C(=O)N[C@@H](Cc2ccc(-c3ccncc3)cc2)C(=O)N[C@H](Cc2ccccc2)C(=O)N1 = 1.08
O=C1CCC(=O)N[C@H](CCc2ccccc2)C(=O)N[C@@H](Cc2ccc(-c3ccncc3)cc2)C(=O)N[C@H](Cc2ccccc2)C(=O)N[C@H](C(=O)N[C@@H](Cc2ccccc2)C(=O)O)Cc2ccc(cc2)N1 [Compound 426] ([d(hPhe)][Phe(4-(4-pyridyl))][dF][Phe(4-NH2)]F-OH; linker N-4 via Suc) = 1.11
O=C1COc2ccc(cc2)C[C@@H](C(=O)O)NC(=O)[C@H](CCc2ccccc2)NC(=O)[C@@H](Cc2ccc(-c3ccccc3)cc2)NC(=O)[C@H](Cc2ccncc2)N1 = 1.05

Field: next compound
Request: Entry "O=C1COc2ccc(cc2)C[C@@H](C(=O)NCS(=O)(=O)O)NC(=O)[C@H](CCc2ccccc2)NC(=O)[C@@H](Cc2ccc(-c3ccccc3)cc2)NC(=O)[C@H](Cc2cccs2)N1" : reported Change in Paw Volume = ?
Result: 0.99
